- Test system: NCI-H23 complex spheroids with HUVEC/MSC, viability
- test.protocol: Anticancer human tumor NCI-H23 cell line growth inhibition [RAS];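 note: spheroids exposed to compound for 7 days; 100% = DMSO vehicle control viability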
- stated.conditions: second compound 0.1 µM; first compound 0.01 µM; active compounds read low

molecule | viability, T/C [%]
C=CC(=O)Nc1cc(Nc2nccc(-c3cn(C)c4ccccc34)n2)c(OC)cc1N(C)CCN(C)C + C=CC(=O)N1CCN(c2nc(OCC3CCCN3C)nc3c(F)c(-c4nc(N)cc(C)c4C(F)(F)F)c(Cl)cc23)C(C)C1 | 39.4
O=C(c1ccc(F)c(F)c1Nc1ccc(I)cc1F)N1CC(O)([C@@H]2CCCCN2)C1 + C=CC(=O)N1CCN(c2nc(OCC3CCCN3C)nc3c(F)c(-c4nc(N)cc(C)c4C(F)(F)F)c(Cl)cc23)C(C)C1 | 40.2
C=CC(=O)N1CCN(c2nc(OCC3CCCN3C)nc3c(F)c(-c4nc(N)cc(C)c4C(F)(F)F)c(Cl)cc23)C(C)C1 (stereo not drawn) + C#Cc1c(F)ccc2cc(O)cc(-c3ncc4c(N5CC6CCC(C5)N6)nc(OCC56CCCN5CC(F)C6)nc4c3F)c12 | 58.2
